- Test system: cells from rabbit cornea (ATCC CCL 60)
- Method: Inhibition of intracellular accumulation of sorbitol in rabbit cornea cells
- Type: cell-based
- Run Parameters: Oryctolagus cuniculus, 16 h, read-out: INHIBITION, IC50 Sorbitol Accumulation
Quantity: IC50 (nM)
Answer with a number only, understood to be in nM.

Data request: Retrieve IC50 measured for Oc1c(F)c(F)c(-c2c(F)c(F)c(O)c(F)c2F)c(F)c1F [A-VII, hydrate] and print it.
Data returned: 420
